Molecular target: Protective antigen (PA) 488-735 (Bacillus anthracis), P13423
Conditions: modification not given
observed property: Kd

Query string: Please look at this binder and report its Kd: "CMNHFPA"
Result string: 38.2 µM
